biological target: basic fibroblast growth factor (bFGF) (UniProt P09038 P09038:135-288); experiment: filter; PBS, 0.01% HSA, 1 mM DTT, 37 C; +/-1.1; conditions: tags: Bachem California, 18 kDa, 154 aa; 125I-labeled for receptor assays
Sequence (P09038 135-288, one chain of several): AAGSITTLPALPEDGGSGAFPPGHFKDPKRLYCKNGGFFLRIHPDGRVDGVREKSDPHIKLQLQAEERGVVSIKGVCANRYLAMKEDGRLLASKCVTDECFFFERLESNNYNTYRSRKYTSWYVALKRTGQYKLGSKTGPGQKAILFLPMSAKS
Parameter: pKd
Schema: pKd number; meaning minus log10 of the concentration expressed in molar units.

Consider the binder 2'-NH2 48B (ssRNA, 2'-NH2 pyrimidines) RNA: GGGAGGACGAUGCGGCAGGAUAGGAUGGGGUCGGAACCGUGUAUCAUAACGAGUCAUCUCCUGGUCAGACGACUCGCCCGA and give its recorded pKd.
8.17
